Cited source for all entries: patent US20170240596A1

Assayed system: C4-2 cells
Assay info: flow
No end group written: not given here.
Measured quantity: Kd
Hi, when you answer, please include the unit after the number. Thanks!

The binder listed as GTIQPYPFSWGY (also: FAM (fluorescein amidite) label, position not given here) [GTI] has a reported Kd of 8.91 µM
